Consider the following IC50 values measured on Prostaglandin G/H synthase 2 (Homo sapiens, UniProt P35354).
Sequence (P35354 whole entry): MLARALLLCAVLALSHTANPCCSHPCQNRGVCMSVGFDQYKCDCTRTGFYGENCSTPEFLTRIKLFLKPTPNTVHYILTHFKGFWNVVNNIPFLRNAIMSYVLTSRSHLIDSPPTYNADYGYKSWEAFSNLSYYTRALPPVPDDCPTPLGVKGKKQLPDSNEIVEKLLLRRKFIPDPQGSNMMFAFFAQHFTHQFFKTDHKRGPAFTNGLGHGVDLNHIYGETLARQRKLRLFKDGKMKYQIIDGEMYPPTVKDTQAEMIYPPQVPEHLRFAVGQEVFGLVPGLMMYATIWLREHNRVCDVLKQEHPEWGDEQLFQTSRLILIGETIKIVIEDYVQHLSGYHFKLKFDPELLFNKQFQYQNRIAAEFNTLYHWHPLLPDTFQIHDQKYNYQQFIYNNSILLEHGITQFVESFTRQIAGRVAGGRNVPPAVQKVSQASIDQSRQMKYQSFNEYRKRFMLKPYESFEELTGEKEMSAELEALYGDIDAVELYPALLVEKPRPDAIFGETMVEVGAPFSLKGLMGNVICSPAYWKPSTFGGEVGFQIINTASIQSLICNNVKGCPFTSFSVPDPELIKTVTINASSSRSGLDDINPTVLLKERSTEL
Give a bare numeral; the unit nM is implied.

> print(dat)
                                   molecule                              assay.system  readout  measured.value
1  CC1(C)C(c2ccc(S(C)(=O)=O)cc2)=C(c2ccccc2)/C1=N/O  Prostaglandin G/H synthase 2 (Homo sapiens, UniProt P35354)     IC50              61
2  CS(=O)(=O)c1ccc(C2=C(c3ccccc3)C(=O)C2)cc1  Prostaglandin G/H synthase 2 (Homo sapiens, UniProt P35354)     IC50             110
3  CC1(C)C(=O)C(c2ccc(F)cc2)=C1c1ccc(S(C)(=O)=O)cc1  Prostaglandin G/H synthase 2 (Homo sapiens, UniProt P35354)     IC50               5

Data request: Identify the measured IC50 of "C=C1C(c2ccccc2)=C(c2ccc(S(C)(=O)=O)cc2)C1(C)C" for Prostaglandin G/H synthase 2 (Homo sapiens, UniProt P35354).
Data returned: 2.2

Data request: And then CC1(C)C(c2ccc(S(C)(=O)=O)cc2)=C(c2ccccc2)C1O (configuration not stated) , what is it?
Data returned: 530

Data request: // query: "CS(=O)(=O)c1ccc(C2=C(c3ccccc3)C(=O)C23CCCC3)cc1"
Data returned: 12

---

Let's go through some recorded IC50 values for Prostaglandin G/H synthase 1 (Homo sapiens) together.
The response must be a number in nM with no trailing unit.

> print(dat)
                                   compound  measured.value
1  CC1(C)C(c2ccc(S(C)(=O)=O)cc2)=C(c2ccccc2)/C1=N/O           34000
2  C=C1C(c2ccccc2)=C(c2ccc(S(C)(=O)=O)cc2)C1(C)C             120
3  CS(=O)(=O)c1ccc(C2=C(c3ccccc3)C(=O)C23CCCC3)cc1             500

Data request: Given the compound "CC1(C)C(=O)C(c2ccc(S(C)(=O)=O)cc2)=C1c1ccccc1" , what is its reported IC50?
Data returned: 2000

Data request: Moving on to the next compound: "CS(=O)(=O)c1ccc(C2=C(c3ccc(F)cc3)CC3(CC3)C2)cc1"
Data returned: 140

Data request: Check CC1(C)C(c2ccc(S(C)(=O)=O)cc2)=C(c2ccccc2)C1O (stereo unspecified) too.
Data returned: 45000

---

# Experimental Details: Compound was tested for plasma concentration in rats when administered at 20 mg/kg in 1% methocel at 1 hr
# Format: ADME, organism-based
# Design: dose 20 mg/kg
# Stated Conditions: rat, read-out: Cmax
Readout: concentration at 1 h
# output: number + unit

> print(dat)
                           smiles.structure  measured.value
1  CC1(C)C(=O)C(c2ccccc2)=C1c1ccc(S(C)(=O)=O)cc1          7.5 µM
2   C=C1CC(c2ccc(S(C)(=O)=O)cc2)=C1c1ccccc1            1 µM
3  CC1(C)C(c2ccc(S(C)(=O)=O)cc2)=C(c2ccccc2)/C1=N/O          1.8 µM

Now look at this entry.
Data request: I'd like to know its concentration at 1 h. The molecule in question is "CC1(C)C(=O)C(c2ccc(S(C)(=O)=O)cc2)=C1c1ccccc1"
Data returned: 8.5 µM
